Data credit: the RNAGym collection of RNA variant scans (doi:10.1073/pnas.2313332121)

B1: TPR 5TU (parent)
chain: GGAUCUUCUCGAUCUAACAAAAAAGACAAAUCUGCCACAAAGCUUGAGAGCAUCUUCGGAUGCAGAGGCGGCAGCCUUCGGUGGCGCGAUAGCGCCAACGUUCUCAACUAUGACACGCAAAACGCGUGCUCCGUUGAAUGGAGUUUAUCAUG

# Variants of: B1
# assay method text: polymerase ribozyme fitness, log enrichment relative to wild type (log ratio); higher = more active; in vitro selection for triplet polymerase activity
Fewer inactive variants are shown than the library holds.
property name: polymerase ribozyme fitness (log ratio)

> print(dat)
                       variant.description  value.observed
 1                          A23C A64G G70C          ≤ -4.2
 2           G25U C36U G67C C85G C87U A89U          ≤ -4.2
 3       U7G C14G A52C U55C G80A G86U C87A          ≤ -4.2
 4         A19C A41G G59U A91C A107G A120U          ≤ -4.2
 5    C5G C54G U56G C95U C125U C129A G133U          ≤ -4.2
 6                         C14G G83C G117U           -2.76
 7     C14G A22G G25A A28C G50C G84U U104G          ≤ -4.2
 8               U9C A37U G92A U102G C108U          ≤ -4.2
 9               C43G G80U G84A C93A U134C          ≤ -4.2
10                   G80U A91C A106U C132G          ≤ -4.2
11           U44A G67A U77G U78G C87A C95G          ≤ -4.2
12                               A37C G83A          -0.102
13                          C35A G59U C69G           -2.14
14  C57A G74U G88U A115G A119U U145G C149G          ≤ -4.2
15        U61G A91C C93U C114A G126A U135G          ≤ -4.2
16                               G65A G84U           -2.89
17          A22U C57U U78A C79U G84C G117C          ≤ -4.2
18                             C125U U145C          -0.634
19           C35U C75U G83A G84A C95U C96U            -1.5
20                              C76A A121G          0.0173
21          C63U G70C C87G A89G C96A G126C          ≤ -4.2
22   U13G G42A U56G G86U G133C G143U U146C          ≤ -4.2
